System: S. aureus DSM 20231;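 note: OD595 on entry to stationary phase over no-drug wells; at most 1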
Assay: fitness (endpoint OD595 vs no drug) (fraction); higher = more growth
Details: first compound 0.125 µg/mL; partner 0.25 µg/mL
measured metric: fitness
Answer using only a numeral; do not append any unit.

Determine its reported fitness: CC1(C)S[C@@H]2[C@H](NC(=O)[C@H](N)c3ccc(O)cc3)C(=O)N2[C@H]1C(=O)O [Amoxicillin] + CC(=O)NC[C@H]1CN(c2ccc(N3CCOCC3)c(F)c2)C(=O)O1 [Linezolid] 0.292

Determine its reported fitness: CCCCCCCCCC(=O)N[C@@H](Cc1c[nH]c2ccccc12)C(=O)N[C@H](CC(N)=O)C(=O)N[C@@H](CC(=O)O)C(=O)N[C@@H]1C(=O)NCC(=O)N[C@@H](CCCN)C(=O)N[C@@H](CC(=O)O)C(=O)N[C@H](C)C(=O)N[C@@H](CC(=O)O)C(=O)NCC(=O)N[C@H](CO)C(=O)N[C@@H]([C@H](C)CC(=O)O)C(=O)N[C@@H](CC(=O)c2ccccc2N)C(=O)O[C@@H]1C [Daptomycin] + COc1cc(Cc2cnc(N)nc2N)cc(OC)c1OC [Trimethoprim] 0.573

Determine its reported fitness: CO/N=C(\C(=O)N[C@@H]1C(=O)N2C(C(=O)[O-])=C(C[N+]3(C)CCCC3)CS[C@H]12)c1csc(N)n1 [Cefepime] + COc1cc(Cc2cnc(N)nc2N)cc(OC)c1OC [Trimethoprim] 0.556

###

System: S. pneumoniae D39V;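 note: first quartile when negative (synergy) and third quartile when positive (antagonism)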
Experiment: Bliss interaction score (quartile over a dose matrix) (fitness difference); higher = more antagonism (negative = synergy)
measured metric: Bliss interaction score
Answer using only a numeral; do not append any unit.

# return Bliss interaction score of CCCCCCCCCC(=O)N[C@@H](Cc1c[nH]c2ccccc12)C(=O)N[C@H](CC(N)=O)C(=O)N[C@@H](CC(=O)O)C(=O)N[C@@H]1C(=O)NCC(=O)N[C@@H](CCCN)C(=O)N[C@@H](CC(=O)O)C(=O)N[C@H](C)C(=O)N[C@@H](CC(=O)O)C(=O)NCC(=O)N[C@H](CO)C(=O)N[C@@H]([C@H](C)CC(=O)O)C(=O)N[C@@H](CC(=O)c2ccccc2N)C(=O)O[C@@H]1C [Daptomycin] + C[C@@H]1O[C@@H]1P(=O)(O)O [Fosfomycin] (system: S. pneumoniae D39V) 0.0735

# return Bliss interaction score of CCCCCCCCCC(=O)N[C@@H](Cc1c[nH]c2ccccc12)C(=O)N[C@H](CC(N)=O)C(=O)N[C@@H](CC(=O)O)C(=O)N[C@@H]1C(=O)NCC(=O)N[C@@H](CCCN)C(=O)N[C@@H](CC(=O)O)C(=O)N[C@H](C)C(=O)N[C@@H](CC(=O)O)C(=O)NCC(=O)N[C@H](CO)C(=O)N[C@@H]([C@H](C)CC(=O)O)C(=O)N[C@@H](CC(=O)c2ccccc2N)C(=O)O[C@@H]1C [Daptomycin] + CN(N=O)C(=O)N[C@@H](C=O)[C@@H](O)[C@H](O)[C@H](O)CO [Streptozotocin] (system: S. pneumoniae D39V) 0.0898

# return Bliss interaction score of CC1(C)S[C@@H]2[C@H](NC(=O)[C@H](N)c3ccc(O)cc3)C(=O)N2[C@H]1C(=O)O [Amoxicillin] + COc1cc(Cc2cnc(N)nc2N)cc(OC)c1OC [Trimethoprim] (system: S. pneumoniae D39V) 0.174

# return Bliss interaction score of CCCCCCCCCC(=O)N[C@@H](Cc1c[nH]c2ccccc12)C(=O)N[C@H](CC(N)=O)C(=O)N[C@@H](CC(=O)O)C(=O)N[C@@H]1C(=O)NCC(=O)N[C@@H](CCCN)C(=O)N[C@@H](CC(=O)O)C(=O)N[C@H](C)C(=O)N[C@@H](CC(=O)O)C(=O)NCC(=O)N[C@H](CO)C(=O)N[C@@H]([C@H](C)CC(=O)O)C(=O)N[C@@H](CC(=O)c2ccccc2N)C(=O)O[C@@H]1C [Daptomycin] + CN1C2=CC=CC=C2N=C3C1=CC=CC3=O [Pyocyanin] (system: S. pneumoniae D39V) -0.0802

# return Bliss interaction score of CC1(C)S[C@@H]2[C@H](NC(=O)[C@H](N)c3ccc(O)cc3)C(=O)N2[C@H]1C(=O)O [Amoxicillin] + CC(=O)NC[C@H]1CN(c2ccc(N3CCOCC3)c(F)c2)C(=O)O1 [Linezolid] (system: S. pneumoniae D39V) 0.225

# return Bliss interaction score of CCN(CC)CCOC(=O)c1ccc(N)cc1 [Procaine] + Cc1cc(NS(=O)(=O)c2ccc(N)cc2)no1 [Sulfamethoxazol] (system: S. pneumoniae D39V) 0.0407

# return Bliss interaction score of CO/N=C(\C(=O)N[C@@H]1C(=O)N2C(C(=O)[O-])=C(C[N+]3(C)CCCC3)CS[C@H]12)c1csc(N)n1 [Cefepime] + COc1c(N2C[C@@H]3CCCN[C@@H]3C2)c(F)cc2c(=O)c(C(=O)O)cn(C3CC3)c12 [Moxifloxacin] (system: S. pneumoniae D39V) -0.0484

# return Bliss interaction score of CCCCCCCCCC(=O)N[C@@H](Cc1c[nH]c2ccccc12)C(=O)N[C@H](CC(N)=O)C(=O)N[C@@H](CC(=O)O)C(=O)N[C@@H]1C(=O)NCC(=O)N[C@@H](CCCN)C(=O)N[C@@H](CC(=O)O)C(=O)N[C@H](C)C(=O)N[C@@H](CC(=O)O)C(=O)NCC(=O)N[C@H](CO)C(=O)N[C@@H]([C@H](C)CC(=O)O)C(=O)N[C@@H](CC(=O)c2ccccc2N)C(=O)O[C@@H]1C [Daptomycin] + CC1(C)S[C@@H]2[C@H](NC(=O)Cc3ccccc3)C(=O)N2[C@H]1C(=O)O [PenicillinG] (system: S. pneumoniae D39V) 0.107

# return Bliss interaction score of C[C@H]1COc2c(N3CCN(C)CC3)c(F)cc3c(=O)c(C(=O)O)cn1c23 [Levofloxacin] + Cc1cc(NS(=O)(=O)c2ccc(N)cc2)no1 [Sulfamethoxazol] (system: S. pneumoniae D39V) -0.0634

# return Bliss interaction score of C[C@H]1COc2c(N3CCN(C)CC3)c(F)cc3c(=O)c(C(=O)O)cn1c23 [Levofloxacin] + CN(C)C(=O)C(CCN1CCC(O)(c2ccc(Cl)cc2)CC1)(c1ccccc1)c1ccccc1 [Loperamide] (system: S. pneumoniae D39V) 0.189

# return Bliss interaction score of C[C@H]1COc2c(N3CCN(C)CC3)c(F)cc3c(=O)c(C(=O)O)cn1c23 [Levofloxacin] + COc1cc(Cc2cnc(N)nc2N)cc(OC)c1OC [Trimethoprim] (system: S. pneumoniae D39V) -0.112

# return Bliss interaction score of CN(C)C(=O)C(CCN1CCC(O)(c2ccc(Cl)cc2)CC1)(c1ccccc1)c1ccccc1 [Loperamide] + CO[C@@H]1[C@@H](OC(N)=O)[C@@H](O)[C@H](Oc2ccc3c(O)c(NC(=O)c4ccc(O)c(CC=C(C)C)c4)c(=O)oc3c2C)OC1(C)C [Novobiocin] (system: S. pneumoniae D39V) -0.113

# return Bliss interaction score of CO/N=C(\C(=O)N[C@@H]1C(=O)N2C(C(=O)[O-])=C(C[N+]3(C)CCCC3)CS[C@H]12)c1csc(N)n1 [Cefepime] + CC[C@H]1OC(=O)[C@H](C)[C@@H](O[C@H]2C[C@@](C)(OC)[C@@H](O)[C@H](C)O2)[C@H](C)[C@@H](O[C@@H]2O[C@H](C)C[C@H](N(C)C)[C@H]2O)[C@](C)(O)C[C@@H](C)C(=O)[C@H](C)[C@@H](O)[C@]1(C)O [Erythromycin] (system: S. pneumoniae D39V) 0.0938
